Below, each entry is listed alongside its reported inhibition at 1 µM.
# Target: UniProtKB O14649
# Sequence (O14649 whole entry): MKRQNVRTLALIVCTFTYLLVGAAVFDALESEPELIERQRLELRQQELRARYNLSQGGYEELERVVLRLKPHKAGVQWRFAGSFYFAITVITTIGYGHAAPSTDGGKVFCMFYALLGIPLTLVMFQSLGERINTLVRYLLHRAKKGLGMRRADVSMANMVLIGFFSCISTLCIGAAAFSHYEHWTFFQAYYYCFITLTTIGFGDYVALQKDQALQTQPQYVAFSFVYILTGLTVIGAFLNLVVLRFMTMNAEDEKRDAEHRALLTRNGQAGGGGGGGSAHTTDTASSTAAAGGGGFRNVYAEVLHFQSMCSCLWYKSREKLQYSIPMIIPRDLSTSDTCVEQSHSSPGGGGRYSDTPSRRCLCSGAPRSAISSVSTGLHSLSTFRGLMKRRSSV
# Assay Procedure: Two-electrode voltage clamp analysis of human TASK-1 channels in Xenopus laevis oocytes
# Format: cell-based
# Test Context: 1 μM; oocytes, voltage clamp; Table 1B
# Protocol: B-1. In Vitro Electrophysiological Analysis of the Human TASK-1 and TASK-3 Channels Via Two-Electrode Voltage Clamp Technique in Xenopus laevis Oocytes Xenopus laevis oocytes were selected as described elsewhere in an exemplary manner [Decher et al., FEBS Lett. 492, 84-89 (2001)]. […] The measurements were carried out as described [Decher et al., FEBS Lett. 492, 84-89 (2001)] at room temperature (21-22° C.) using a Turbo TEC 10CD amplifier (NPI), recorded at 2 kHz and filtered with 0.4 kHz. […]
All answers are understood in %, so give the number only.

{"Compound": "O=C(c1cccc(F)c1)N1CCN(Cc2c(-c3ccc(Cl)cc3)nc3ccc(C4CC4)cn23)CC1 [drawing 123]", "Reading Unit": "%", "inhibition at 1 µM": 30}
{"Compound": "O=C(c1ccncc1)N1CCN(Cc2c(-c3ccc(Cl)cc3)nc3ccc(C4CC4)cn23)CC1 [drawing 124]", "Reading Unit": "%", "inhibition at 1 µM": 47.2}
{"Compound": "O=C(c1ccccc1Cl)N1CCN(Cc2c(-c3ccc(Cl)cc3)nc3ccc(-c4ccccc4)cn23)CC1 [drawing 122]", "Reading Unit": "%", "inhibition at 1 µM": 6.3}

Memo: COc1cccc(-c2nc3ccccn3c2CN2CCN(C(=O)C3CCC3)CC2)c1 [drawing 125] , reported inhibition at 1 µM: 49.6

Memo: O=C(c1cnccn1)N1CCN(Cc2c(-c3ccc(Cl)cc3)nc3ccc(C4CC4)cn23)CC1 [drawing 126] , reported inhibition at 1 µM: 27.7

###

Below, each entry is listed alongside its reported inhibition at 1 µM.
# Target: human TASK-3 (Homo sapiens (Human), UniProt Q9NPC2)
# Sequence (Q9NPC2 whole entry): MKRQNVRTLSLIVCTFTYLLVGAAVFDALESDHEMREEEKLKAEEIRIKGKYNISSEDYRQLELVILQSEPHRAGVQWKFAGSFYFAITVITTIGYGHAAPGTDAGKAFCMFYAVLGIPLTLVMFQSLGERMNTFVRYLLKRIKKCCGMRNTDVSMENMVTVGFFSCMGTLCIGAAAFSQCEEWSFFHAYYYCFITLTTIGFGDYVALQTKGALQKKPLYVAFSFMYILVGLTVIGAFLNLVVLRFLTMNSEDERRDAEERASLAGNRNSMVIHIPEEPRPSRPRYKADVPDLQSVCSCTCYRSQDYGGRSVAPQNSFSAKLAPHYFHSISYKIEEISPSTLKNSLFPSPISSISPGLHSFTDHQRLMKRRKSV
# Assay Procedure: Two-electrode voltage clamp analysis of human TASK-3 channels in Xenopus laevis oocytes
# Format: cell-based
# Test Context: 1 μM; oocytes, voltage clamp; Table 1B
All answers are understood in %, so give the number only.

Field: example entries. Status: answers known.
{"Compound": "O=C(c1ccccc1Cl)N1CCN(Cc2c(-c3ccc(Cl)cc3)nc3ccc(-c4ccccc4)cn23)CC1 [drawing 122]", "Assay Metric": "inhibition at 1 µM", "Numeric Result": 9.3}
{"Compound": "O=C(c1cnccn1)N1CCN(Cc2c(-c3ccc(Cl)cc3)nc3ccc(C4CC4)cn23)CC1 [drawing 126]", "Assay Metric": "inhibition at 1 µM", "Numeric Result": 8.1}
{"Compound": "O=C(c1ccncc1)N1CCN(Cc2c(-c3ccc(Cl)cc3)nc3ccc(C4CC4)cn23)CC1 [drawing 124]", "Assay Metric": "inhibition at 1 µM", "Numeric Result": 12.1}

Memo: O=C(c1cccc(F)c1)N1CCN(Cc2c(-c3ccc(Cl)cc3)nc3ccc(C4CC4)cn23)CC1 [drawing 123] , reported inhibition at 1 µM: 29.7

Memo: COc1cccc(-c2nc3ccccn3c2CN2CCN(C(=O)C3CCC3)CC2)c1 [drawing 125] , reported inhibition at 1 µM: 34.6

###

Below, each entry is listed alongside its reported IC50.
# Target: human TASK-3 (Homo sapiens (Human), UniProt Q9NPC2)
# Assay Procedure: Inhibition of recombinant TASK-3 in stably transfected CHO cells (voltage-sensitive dye, FLIPR)
# Format: cell-based
# Test Context: depolarization induced by 40 mM potassium chloride, Table 2A
All answers are understood in nM, so give the number only.

Field: example entries. Status: answers known.
{"Smiles Entry": "COc1ccc(F)cc1C(=O)N1CCN(Cc2c(-c3ccc(Cl)cc3)nc3ccccn23)CC1", "Assay Metric": "IC50", "Reading Unit": "nM", "Numeric Result": 150}
{"Smiles Entry": "CC(C)c1cccc(C(=O)N2CCN(Cc3c(-c4ccc(Cl)cc4)nc4ccccn34)CC2)c1", "Assay Metric": "IC50", "Reading Unit": "nM", "Numeric Result": 2000}
{"Smiles Entry": "COc1ccc(F)c(C(=O)N2CCN(Cc3c(-c4ccc(Cl)cc4)nc4ccccn34)CC2)n1", "Assay Metric": "IC50", "Reading Unit": "nM", "Numeric Result": 5.2}
{"Smiles Entry": "Cc1ccc(F)cc1C(=O)N1CCN(Cc2c(-c3ccc(Cl)cc3)nc3ccccn23)CC1", "Assay Metric": "IC50", "Reading Unit": "nM", "Numeric Result": 160}
{"Smiles Entry": "O=C(c1ccccc1F)N1CCN(Cc2c(-c3ccc(Br)cc3)nc3ccccn23)CC1", "Assay Metric": "IC50", "Reading Unit": "nM", "Numeric Result": 46}
{"Smiles Entry": "COc1cccc(C(=O)N2CCN(Cc3c(-c4ccc(C(C)C)cc4)nc4ccccn34)CC2)n1", "Assay Metric": "IC50", "Reading Unit": "nM", "Numeric Result": 141}
{"Smiles Entry": "O=C(c1cccc(Cl)c1)N1CCN(Cc2c(-c3ccc(Cl)cc3)nc3ccccn23)CC1", "Assay Metric": "IC50", "Reading Unit": "nM", "Numeric Result": 190}

Note to self: IC50 of O=C(c1ccccc1F)N1CCN(Cc2c(-c3ccc(Cl)cc3)nc3ccccn23)CC1 with human TASK-3 (Homo sapiens (Human), UniProt Q9NPC2) was 98
